- Tested on: IMR32 human neuroblastoma cells
- test_description: MTT reduction assay: protection of IMR32 cells from βA insult
- Assay type: cell-based
- recorded_conditions: βA(1-42)
Recorded ED50, cell protection against βA insult, one value per entry.
property_name: ED50, cell protection against βA insult (µg/mL)

[[record]]
compound = "CC(C)c1cc2c(c(O)c1O)[C@@]13CCCC(C)(C)[C@@H]1[C@H](OC3=O)[C@H]2O"
property_name = "ED50, cell protection against βA insult"
numeric_result = 35.5

[[record]]
compound = "COc1cc(C=CC(=O)CC(=O)C=Cc2ccc(O)c(OC)c2)ccc1O [curcumin, reference compound]"
property_name = "ED50, cell protection against βA insult"
numeric_result = 6.3

[[record]]
compound = "CC(C)c1cc(C=O)c2c(c1O)OC(=O)[C@@]21CCCC(C)(C)[C@@H]1C=O"
property_name = "ED50, cell protection against βA insult"
numeric_result = 14.6

[[record]]
compound = "CCCCC/C=C/C(=O)CCc1ccc(O)c(OC)c1 [6-shogaol [6S], 6-shogaol]"
property_name = "ED50, cell protection against βA insult"
numeric_result = 6.1

[[record]]
compound = "CC(C)c1cc2c(c(O)c1O)[C@@]13CCCC(C)(C)[C@@H]1[C@@H](O)C2OC3=O"
property_name = "ED50, cell protection against βA insult"
numeric_result = 3.4


---

- System: HUVEC cells
- test_description: MTT reduction assay: protection of HUVEC cells from βA insult
- Format: cell-based, human
- recorded_conditions: βA(25-35)
Recorded ED50, cell protection against βA insult, one value per entry.
property_name: ED50, cell protection against βA insult (µg/mL)

[[record]]
compound = "CC(C)c1cc2c(c(O)c1O)[C@@]13CCCC(C)(C)[C@@H]1[C@H](OC3=O)[C@H]2O"
uom = "µg/mL"
numeric_result = 31.0

[[record]]
compound = "CC(C)c1cc2c(c(O)c1O)[C@@]13CCCC(C)(C)[C@@H]1[C@@H](O)C2OC3=O"
uom = "µg/mL"
numeric_result = 3.2

[[record]]
compound = "CC(C)c1cc(C=O)c2c(c1O)OC(=O)[C@@]21CCCC(C)(C)[C@@H]1C=O"
uom = "µg/mL"
numeric_result = 15.5

[[record]]
compound = "COc1cc(C=CC(=O)CC(=O)C=Cc2ccc(O)c(OC)c2)ccc1O [curcumin, reference compound]"
uom = "µg/mL"
numeric_result = 6.2

[[record]]
compound = "CCCCC/C=C/C(=O)CCc1ccc(O)c(OC)c1 [6-shogaol [6S], 6-shogaol]"
uom = "µg/mL"
numeric_result = 5.9


---

- Tested on: PC12 cells
- test_description: MTT reduction assay: protection of PC12 cells from βA insult
- Assay type: cell-based
- recorded_conditions: βA(1-42), 24 hours
property_name: ED50, cell protection against βA insult (µg/mL)

[[record]]
molecule = "CC(C)c1cc(C=O)c2c(c1O)OC(=O)[C@@]21CCCC(C)(C)[C@@H]1C=O"
system = "PC12 cells"
numeric_result = 13.3

[[record]]
molecule = "CC(C)c1cc2c(c(O)c1O)[C@@]13CCCC(C)(C)[C@@H]1[C@@H](O)C2OC3=O"
system = "PC12 cells"
numeric_result = 3.1

[[record]]
molecule = "COc1cc(C=CC(=O)CC(=O)C=Cc2ccc(O)c(OC)c2)ccc1O [curcumin, reference compound]"
system = "PC12 cells"
numeric_result = 7.1

[[record]]
molecule = "CC(C)c1cc2c(c(O)c1O)[C@@]13CCCC(C)(C)[C@@H]1[C@H](OC3=O)[C@H]2O"
system = "PC12 cells"
numeric_result = 35.4

[[record]]
molecule = "CCCCC/C=C/C(=O)CCc1ccc(O)c(OC)c1 [6-shogaol [6S], 6-shogaol]"
system = "PC12 cells"
numeric_result = 5.7


---

- System: IMR32 human neuroblastoma cells
- test_description: MTT reduction assay: protection of IMR32 cells from βA insult
- Format: cell-based
- recorded_conditions: βA(25-35)
Recorded ED50, cell protection against βA insult, one value per entry.
property_name: ED50, cell protection against βA insult (µg/mL)

[[record]]
compound = "CCCCC/C=C/C(=O)CCc1ccc(O)c(OC)c1 [6-shogaol [6S], 6-shogaol]"
uom = "µg/mL"
numeric_result = 6.3

[[record]]
compound = "CC(C)c1cc2c(c(O)c1O)[C@@]13CCCC(C)(C)[C@@H]1[C@H](OC3=O)[C@H]2O [RS-9]"
uom = "µg/mL"
numeric_result = 38.3

[[record]]
compound = "CC(C)c1cc2c(c(O)c1O)[C@@]13CCCC(C)(C)[C@@H]1[C@@H](O)C2OC3=O [RS-7]"
uom = "µg/mL"
numeric_result = 2.9

[[record]]
compound = "CC(C)c1cc(C=O)c2c(c1O)OC(=O)[C@@]21CCCC(C)(C)[C@@H]1C=O [RS-8]"
uom = "µg/mL"
numeric_result = 15.2

[[record]]
compound = "COc1cc(C=CC(=O)CC(=O)C=Cc2ccc(O)c(OC)c2)ccc1O [curcumin, reference compound]"
uom = "µg/mL"
numeric_result = 7.4

